Recorded IC50 for molecules tested on SIK1 (Homo sapiens), drawn from a number of studies.

MOLECULE: Oc1ccccc1-c1c[nH]c2ncc(-c3ccc(CN4CCOCC4)s3)cc12
OBS VALUE: > 100 nM

MOLECULE: COc1cc(-c2cnc3cc(OCCCN4CCCCC4)ccn23)cc(OC(F)F)c1C(=O)NCC#N
OBS VALUE: 10 to 100 nM

MOLECULE: Fc1ccc(-c2n[nH]c3nccc(-c4ccsc4)c23)c(F)c1
OBS VALUE: > 1000 nM

Lab entry: SIK1 (Homo sapiens) assay, molecule COc1cc(-c2cnc3cc(OCCOCCN4CCN(C(C)C)CC4)ccn23)cc(OC(F)F)c1C(=O)NC1CC1 , IC50 = 10 to 100 nM

Tested on SIK1 (Homo sapiens): COCCn1cc(-c2cc(C#N)c3c(-c4cc(OC(F)F)c5c(c4)[C@@H](C)CNC5=O)n(C)nc3c2)cn1 (single isomer, unassigned) . Observed IC50: 7.5 nM

Bench note, SIK1 (Homo sapiens): COc1cc(-c2cnc3cc(OCCC4CCCN4C)ccn23)cc2c1C(=O)N(CC(F)(F)F)CC2 (stereo not drawn) , IC50 reads 100 to 500 nM

====

Here's a roundup of pIC50 values tested on UniProt P57059, taken from various published works.
pIC50: −log10 of the molar value.

COMPOUND: COc1cc(-c2cnc3cc(OCCCN4CC5(CCS5(=O)=O)C4)ccn23)cc(OC(F)F)c1C(=O)NC1CC1
QUANTITY KIND: pIC50
OBS VALUE: 7.00 to 8.00
//
COMPOUND: COCCN(CCOc1ccn2c(-c3cc(OC)c(C(=O)NC4CC4)c(OC(F)F)c3)cnc2c1)CC(F)F
QUANTITY KIND: pIC50
OBS VALUE: 7.00 to 8.00
//
COMPOUND: COc1cc(-c2c3c(OCc4cccnc4)cc(-c4cnn(C)c4)cc3nn2C)cc(OC(F)F)c1C(=O)N1CC(O)(C(F)(F)F)C1
QUANTITY KIND: pIC50
OBS VALUE: 9.40

Reported pIC50 of COc1c(F)cc(F)cc1-c1c[nH]c2ncc(-n3cc(N4CCN(S(C)(=O)=O)CC4)cn3)cc12 : < 7.00

====

Assay read-out IC50 on SIK1 (Homo sapiens, UniProt P57059); records merged from the literature.
Sequence (P57059 whole entry): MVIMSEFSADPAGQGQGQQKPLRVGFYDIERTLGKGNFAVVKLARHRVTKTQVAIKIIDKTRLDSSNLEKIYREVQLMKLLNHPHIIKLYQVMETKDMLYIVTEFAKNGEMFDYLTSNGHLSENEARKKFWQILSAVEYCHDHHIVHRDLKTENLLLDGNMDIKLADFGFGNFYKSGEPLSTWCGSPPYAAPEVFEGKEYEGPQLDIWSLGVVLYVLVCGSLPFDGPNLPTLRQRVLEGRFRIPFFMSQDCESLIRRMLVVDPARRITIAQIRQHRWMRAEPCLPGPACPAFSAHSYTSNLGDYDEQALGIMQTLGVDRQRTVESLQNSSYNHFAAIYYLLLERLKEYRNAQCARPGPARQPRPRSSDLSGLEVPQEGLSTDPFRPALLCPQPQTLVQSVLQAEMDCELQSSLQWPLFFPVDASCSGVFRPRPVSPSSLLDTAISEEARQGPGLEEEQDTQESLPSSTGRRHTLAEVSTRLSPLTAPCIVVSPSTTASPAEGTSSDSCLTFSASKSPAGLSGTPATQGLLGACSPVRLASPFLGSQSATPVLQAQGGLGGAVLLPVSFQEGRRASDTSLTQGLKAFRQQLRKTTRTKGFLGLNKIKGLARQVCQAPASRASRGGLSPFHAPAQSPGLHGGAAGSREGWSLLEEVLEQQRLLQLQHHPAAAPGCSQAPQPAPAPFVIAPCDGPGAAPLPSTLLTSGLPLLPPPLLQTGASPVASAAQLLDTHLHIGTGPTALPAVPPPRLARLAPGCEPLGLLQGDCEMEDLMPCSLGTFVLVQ

Some entries whose results are on file:
MOLECULE: COc1cc(-c2cnc3cc(OCCN4CCOC(C5CC5)C4)ccn23)cc(OC(F)F)c1C(=O)NC1CC1 (stereo not shown)
OBS VALUE: 10 to 100 nM
//
MOLECULE: COc1cc(-c2cnc3cc(OCCCN4CCCC(O)C4)ccn23)cc(OC(F)F)c1C(=O)NC1CC1 (stereo not shown)
OBS VALUE: 10 to 100 nM

The molecule listed as Oc1ccccc1-c1c[nH]c2ncc(-c3ccsc3)cc12 shows IC50 equal to > 100 nM

IC50 reading for COc1cc(-c2cnc3cc(OCCOCCN4CCOCC4)ccn23)cc(OC(F)F)c1C(=O)NC1CC1 : 10 to 100 nM

So, COc1cc(-c2c3c(C#N)cc(-c4cnn(CCC5(O)CCC5)c4)cc3nn2C)cc(OC(F)F)c1C(=O)N[C@@H]1CC1(F)F ? Its IC50 was 4.4 nM

Form field IC50, entry COc1cc(-c2cnc3cc(OCCN4CCOCC4)ccn23)cc2c1C(=O)NCC2 : 10 to 100 nM

# IC50 (molecule: COc1cc(-c2cnc3cc(OCC4COCCN4C)ccn23)cc(OC(F)F)c1C(=O)NC1CC1 (stereo not shown) ) is 10 to 100 nM

The recorded IC50 for COc1cc(-c2cnc3cc(OCCNC(=O)C(F)F)ccn23)cc(OC(F)F)c1C(=O)NC1CC1 is 0.01 to 10 nM

Reported IC50 ( COc1cc(-c2cnc3cc(OCC4(C)COC4)ccn23)cc(OC(F)F)c1C(=O)NC1CC1 ) = 10 to 100 nM

Briefly, IC50 measured for COc1cc(-c2c3c(C#N)cc(-c4cnn(CC5CCCO5)c4)cc3nn2C)cc(OC(F)F)c1C(=O)NCC1(F)CC1 (stereo not shown) : 12.5 nM

Measured IC50, COc1cc(-c2cnc3cc(OC[C@H]4CCCN4CC(F)F)ccn23)cc(OC(F)F)c1C(=O)NC1CC1 : 10 to 100 nM

Record summary for COC(=O)N1CCCCC1COc1ccn2c(-c3cc(OC)c(C(=O)NC4CC4)c(OC(F)F)c3)cnc2c1 (stereo not shown) : reported IC50 = 0.01 to 10 nM

Summary for this molecule, CN1CCN(S(=O)(=O)n2cc(-c3cnc4[nH]cc(-c5ccc6c(c5)OC(F)(F)O6)c4c3)cn2)CC1 : IC50 is > 100 nM

Quick note, IC50 for FC1(F)Oc2cccc(-c3c[nH]c4ncc(-c5ccc(CN6CCCC6)s5)cc34)c2O1 landed at > 100 nM

IC50 for FC1(F)Oc2cccc(-c3c[nH]c4ncc(-c5cnn(C6CCNCC6)c5)cc34)c2O1 is < 100 nM

The molecule identified as COc1cc(-c2cnc3cc(OCC(N)C4CCCO4)ccn23)cc(OC(F)F)c1C(=O)NC1CC1 (stereo not shown) registered its IC50 at 10 to 100 nM
